assay: Selectivity index, ratio of IC50 for Thermus aquaticus taq polymerase to IC50 for telomerase
Reported Property: Ratio IC50

# Compound, Reported Property, Observed Measurement
measured = [
    ("CC1=NN(C(=O)c2ccccc2C)C(c2ccccc2O)C1 (stereo not given)", "Ratio IC50", 2.1),
    ("CC1=NN(C(=O)c2ccccc2)C(c2ccccc2O)C1 (stereo not given)", "Ratio IC50", 2),
    ("CC1=NN(S(=O)(=O)c2ccc(C)cc2)C(c2ccccc2O)C1 (stereo not given)", "Ratio IC50", 1.9),
    ("CC1=NN(S(=O)(=O)c2ccccc2)C(c2ccccc2O)C1 (stereo not given)", "Ratio IC50", 1.8),
    ("CC1=NN(C(=O)CCl)C(c2ccccc2O)C1 (stereo not given)", "Ratio IC50", 2.1),
]

###

test system: HepG2; experiment: Cytotoxicity against human HepG2 after 48 hrs by MTT assay; format: functional, cell-based; conditions: HepG2, 48 h
Mark each entry true (1) if its IC50 sits below 60 µM, and false (0) for all others.

# Molecule, Class
data = [
    ("O=c1[nH]cc(F)c(=O)[nH]1", "true (1)"),
    ("CC1=NN(C(=O)c2ccccc2Cl)C(c2ccccc2O)C1 (stereo not given)", "false (0)"),
    ("CC1=NN(C(=O)c2ccccc2C)C(c2ccccc2O)C1 (stereo not given)", "false (0)"),
    ("CC1=NN(C(=O)CCl)C(c2ccccc2O)C1 (stereo not given)", "true (1)"),
    ("CC1=NN(C(=O)Cc2ccc([N+](=O)[O-])cc2)C(c2ccccc2O)C1 (stereo not given)", "false (0)"),
    ("CC1=NN(S(=O)(=O)c2ccc(C)cc2)C(c2ccccc2O)C1 (stereo not given)", "false (0)"),
    ("CC1=NN(S(=O)(=O)c2ccccc2)C(c2ccccc2O)C1 (stereo not given)", "true (1)"),
    ("CC1=NN(C(=O)c2ccccc2)C(c2ccccc2O)C1 (stereo not given)", "true (1)"),
    ("CC1=NN(C(=O)c2ccc(C)cc2)C(c2ccccc2O)C1 (stereo not given)", "false (0)"),
    ("CC1=NN(C(=O)c2ccccc2)C(c2cccc(C)c2O)C1 (stereo not given)", "false (0)"),
]

###

molecular target: Telomerase reverse transcriptase (Homo sapiens, UniProt O14746); experiment: Inhibition of telomerase activity expressed in human SGC7901 cells by SYBER green dye based TRAP
Sequence (O14746 whole entry): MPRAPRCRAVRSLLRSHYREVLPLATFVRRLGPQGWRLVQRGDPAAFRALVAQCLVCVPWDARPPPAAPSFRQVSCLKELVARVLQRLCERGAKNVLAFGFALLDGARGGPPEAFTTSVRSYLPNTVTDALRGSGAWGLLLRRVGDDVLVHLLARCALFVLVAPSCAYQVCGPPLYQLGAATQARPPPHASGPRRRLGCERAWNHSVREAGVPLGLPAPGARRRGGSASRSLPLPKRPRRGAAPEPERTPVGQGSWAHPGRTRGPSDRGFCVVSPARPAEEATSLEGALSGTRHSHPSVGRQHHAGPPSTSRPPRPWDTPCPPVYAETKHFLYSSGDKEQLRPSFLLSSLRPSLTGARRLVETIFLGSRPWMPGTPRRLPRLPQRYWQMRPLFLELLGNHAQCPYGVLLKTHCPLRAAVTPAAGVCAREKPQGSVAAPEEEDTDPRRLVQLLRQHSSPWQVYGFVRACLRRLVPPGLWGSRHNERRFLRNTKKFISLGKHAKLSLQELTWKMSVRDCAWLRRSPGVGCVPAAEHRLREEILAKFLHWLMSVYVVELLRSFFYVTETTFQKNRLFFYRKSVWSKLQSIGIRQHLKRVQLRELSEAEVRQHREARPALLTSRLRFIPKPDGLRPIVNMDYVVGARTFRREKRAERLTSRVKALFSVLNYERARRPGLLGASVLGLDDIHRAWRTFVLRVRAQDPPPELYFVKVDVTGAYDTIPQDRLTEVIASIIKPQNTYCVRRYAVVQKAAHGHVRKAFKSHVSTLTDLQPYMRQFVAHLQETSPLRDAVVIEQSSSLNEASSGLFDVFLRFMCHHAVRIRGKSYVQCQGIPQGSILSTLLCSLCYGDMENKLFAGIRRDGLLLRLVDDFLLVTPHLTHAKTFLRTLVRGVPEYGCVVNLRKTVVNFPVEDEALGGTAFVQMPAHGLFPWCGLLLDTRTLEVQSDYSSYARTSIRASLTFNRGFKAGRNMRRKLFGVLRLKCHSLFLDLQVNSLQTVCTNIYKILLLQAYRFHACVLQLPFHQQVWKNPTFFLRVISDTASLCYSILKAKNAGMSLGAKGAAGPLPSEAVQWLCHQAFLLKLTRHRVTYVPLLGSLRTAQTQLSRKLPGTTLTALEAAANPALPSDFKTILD
pIC50: −log10 of the molar value.
Listed here are molecules together with their documented pIC50.

# Molecule, Target Or System, pIC50
records = [
    ("CC1=NN(C(=O)CCl)C(c2ccccc2O)C1 (configuration not stated)", "Telomerase reverse transcriptase (Homo sapiens, UniProt O14746)", 5.02),
    ("CC1=NN(C(=O)c2ccc(C)cc2)C(c2ccccc2O)C1 (configuration not stated)", "Telomerase reverse transcriptase (Homo sapiens, UniProt O14746)", 4.50),
    ("CC[n+]1c(-c2ccccc2)c2cc(N)ccc2c2ccc(N)cc21 [HOMIDIUM BROMIDE]", "Telomerase reverse transcriptase (Homo sapiens, UniProt O14746)", 5.59),
    ("CC1=NN(C(=O)c2ccccc2C)C(c2ccccc2O)C1 (configuration not stated)", "Telomerase reverse transcriptase (Homo sapiens, UniProt O14746)", 4.61),
    ("CC1=NN(C(=O)c2ccccc2)C(c2ccccc2O)C1 (configuration not stated)", "Telomerase reverse transcriptase (Homo sapiens, UniProt O14746)", 5.40),
    ("CC1=NN(S(=O)(=O)c2ccc(C)cc2)C(c2ccccc2O)C1 (configuration not stated)", "Telomerase reverse transcriptase (Homo sapiens, UniProt O14746)", 4.77),
    ("CC1=NN(S(=O)(=O)c2ccccc2)C(c2ccccc2O)C1 (configuration not stated)", "Telomerase reverse transcriptase (Homo sapiens, UniProt O14746)", 4.76),
]
